# reported EC50; entries follow
# measured target: Peroxisome proliferator-activated receptor alpha (Homo sapiens)
# Sequence (Q07869 whole entry): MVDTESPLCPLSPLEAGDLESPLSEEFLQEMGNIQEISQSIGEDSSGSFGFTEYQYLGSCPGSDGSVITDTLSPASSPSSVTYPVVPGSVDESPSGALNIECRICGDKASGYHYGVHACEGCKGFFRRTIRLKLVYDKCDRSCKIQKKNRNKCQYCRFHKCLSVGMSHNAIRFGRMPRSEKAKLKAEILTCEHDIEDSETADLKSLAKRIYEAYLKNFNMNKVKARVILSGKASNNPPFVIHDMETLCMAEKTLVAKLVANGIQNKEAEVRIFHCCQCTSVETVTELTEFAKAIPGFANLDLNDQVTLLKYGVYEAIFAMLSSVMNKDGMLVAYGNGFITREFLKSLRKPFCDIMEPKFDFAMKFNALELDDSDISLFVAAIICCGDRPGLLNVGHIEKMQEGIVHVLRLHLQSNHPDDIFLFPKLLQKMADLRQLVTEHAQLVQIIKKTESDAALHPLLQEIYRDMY
# experimental protocol: Displacement of pan-PPAR fluormone from PPARalpha LBD by TR-FRET based LanthaScreen assay
# condition summary: read-out: EC50
# output: bare number, implied unit µM

Briefly, EC50 measured for O=C(Nn1cc([N+](=O)[O-])cn1)c1cccc(COc2ccc(Br)cc2)c1 : 11.4

Next item in the queue.
Briefly, EC50 measured for Cc1cc(SCc2sc(-c3ccc(C(F)(F)F)c(F)c3)nc2C)ccc1OCC(=O)O : 0.92

###

# experimental protocol: Octanol-water partition coefficient, log P of the compound
# Format: physicochemical
# reported logP; entries follow
Answer using only a numeral; do not append any unit.

Below are worked cases with known answers.
Briefly, logP measured for CC(C)(Sc1ccc(CCN(CCCCC2CCCCC2)C(=O)NC2CCCCC2)cc1)C(=O)O : 8.02

Briefly, logP measured for CN(CCOc1ccc(CC2SC(=O)NC2=O)cc1)c1ccccn1 (configuration not stated) : 2.62

Briefly, logP measured for O=C1NC(=S)NC(=O)C1=Cc1ccc(OCc2ccccc2)c(Cl)c1 : 3.11

***
Briefly, logP measured for CN(CCOc1ccc(C[C@H](Nc2ccccc2C(=O)c2ccccc2)C(=O)O)cc1)c1ccccn1 : 5.23

Briefly, logP measured for Cc1cc(SCc2sc(-c3ccc(C(F)(F)F)c(F)c3)nc2C)ccc1OCC(=O)O : 5.95

Briefly, logP measured for CCOC(=O)c1sc(N2C(=O)C(O)=C(C(=O)c3cccs3)C2c2ccc(C)o2)nc1C (configuration not stated) : 2.39

Briefly, logP measured for O=C(Nn1cc([N+](=O)[O-])cn1)c1cccc(COc2ccc(Br)cc2)c1 : 3.71

###

# measured target: Peroxisome proliferator-activated receptor gamma (Homo sapiens, UniProt P37231)
# Sequence (P37231 whole entry): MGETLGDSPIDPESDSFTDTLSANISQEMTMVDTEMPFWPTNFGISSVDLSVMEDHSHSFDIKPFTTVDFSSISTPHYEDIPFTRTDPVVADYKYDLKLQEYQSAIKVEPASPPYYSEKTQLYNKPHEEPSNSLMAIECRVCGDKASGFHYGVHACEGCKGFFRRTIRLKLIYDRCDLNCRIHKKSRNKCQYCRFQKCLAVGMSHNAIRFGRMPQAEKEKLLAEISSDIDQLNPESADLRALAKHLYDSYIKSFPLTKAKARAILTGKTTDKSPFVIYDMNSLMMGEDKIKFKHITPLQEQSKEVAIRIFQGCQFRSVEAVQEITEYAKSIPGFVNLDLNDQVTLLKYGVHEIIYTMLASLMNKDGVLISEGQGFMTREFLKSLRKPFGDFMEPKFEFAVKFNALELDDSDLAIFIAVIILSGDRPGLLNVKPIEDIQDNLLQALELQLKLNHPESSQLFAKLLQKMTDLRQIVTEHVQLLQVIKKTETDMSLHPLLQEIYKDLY
# experimental protocol: Agonist activity at PPARgamma LBD in human 293H DA cells after 16 hrs by TR-FRET activation reporter assay
# Format: functional, cell-based
# reported pEC50; entries follow
Friendly reminder that pEC50 comes from taking -log10 of the concentration in mol/L.

Briefly, pEC50 measured for CCOC(=O)c1sc(N2C(=O)C(O)=C(C(=O)c3cccs3)C2c2ccc(C)o2)nc1C (stereo not drawn) : 6.23

Briefly, pEC50 measured for O=C(Nn1cc([N+](=O)[O-])cn1)c1cccc(COc2ccc(Br)cc2)c1 : 6.17

Next item in the queue.
Briefly, pEC50 measured for O=C1NC(=S)NC(=O)C1=Cc1ccc(OCc2ccccc2)c(Cl)c1 : 6.33

###

# measured target: Peroxisome proliferator-activated receptor delta (Homo sapiens, UniProt Q03181)
# Sequence (Q03181 whole entry, the tested form may be a part): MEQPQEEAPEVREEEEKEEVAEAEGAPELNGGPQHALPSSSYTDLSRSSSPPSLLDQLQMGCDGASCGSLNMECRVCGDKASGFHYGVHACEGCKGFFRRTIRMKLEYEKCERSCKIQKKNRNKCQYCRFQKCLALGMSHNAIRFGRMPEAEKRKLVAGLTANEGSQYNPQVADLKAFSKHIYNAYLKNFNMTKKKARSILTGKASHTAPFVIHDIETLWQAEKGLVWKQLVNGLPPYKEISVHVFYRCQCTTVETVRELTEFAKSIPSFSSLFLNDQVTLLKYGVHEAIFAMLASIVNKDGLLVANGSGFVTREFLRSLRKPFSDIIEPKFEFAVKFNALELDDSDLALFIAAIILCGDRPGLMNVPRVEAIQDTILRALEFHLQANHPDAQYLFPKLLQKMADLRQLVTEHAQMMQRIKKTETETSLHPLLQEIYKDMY
# experimental protocol: Displacement of pan-PPAR fluormone from PPARdelta LBD by TR-FRET based LanthaScreen assay
recorded endpoint: pEC50
Friendly reminder that pEC50 comes from taking -log10 of the concentration in mol/L.

Briefly, pEC50 measured for O=C(Nn1cc([N+](=O)[O-])cn1)c1cccc(COc2ccc(Br)cc2)c1 : 4.68

***
Briefly, pEC50 measured for CCOC(=O)c1sc(N2C(=O)C(O)=C(C(=O)c3cccs3)C2c2ccc(C)o2)nc1C (configuration not stated) : 4.59
